Molecular target: UniProt:P49137
Test: MK2 degradation in human SW1353 cells (MSD, 24 h)
Assay type: cell-based
Design: endogenous in cells; host or cells: SW-1353 (ATCC HTB-94)
Settings: read-out: MK2 MSD SW 1353 24 h Dmax %
Readout type: Dmax

Below, each entry is followed by its recorded Dmax result.
Entry Cn1c(=O)n(C2CCC(=O)NC2=O)c2ccc(N3CCC(CN4CCN(c5ccc(-c6cc(-c7cc8c(s7)CCNC8=O)ccn6)cc5)CC4)CC3)cc21 (centres unmarked) under UniProt:P49137 had Dmax of < 50%

Entry C[C@@H]1CNc2c(sc3ccc4nc(-c5cncc(N6CCN(CC7CCN(c8ccc9c(c8)n(C)c(=O)n9C8CCC(=O)NC8=O)CC7)CC6)c5)ccc4c23)C(=O)N1 (some centres unmarked) under UniProt:P49137 had Dmax of > 75%

Entry Cn1c(=O)n(C2CCC(=O)NC2=O)c2ccc(N3CC(CN4CCN(c5ccc(-c6cc(-c7cc8c([nH]7)CCNC8=O)ccn6)c(F)c5)CC4)C3)cc21 (centres unmarked) under UniProt:P49137 had Dmax of > 75%

Below are 4 molecules. Give each one its Dmax.
1. C[C@@H]1CNc2c(sc3ccc4nc(N5CCN(CCC6CCN(c7ccc8c(c7)n(C)c(=O)n8C7CCC(=O)NC7=O)CC6)CC5)ccc4c23)C(=O)N1 (some centres unmarked)
2. C[C@@H]1CNc2c(sc3ccc4nc(-c5ccc(N6CCN(CCCCCCCCc7ccc8c(c7)n(C)c(=O)n8C7CCC(=O)NC7=O)CC6)cc5)ccc4c23)C(=O)N1 (some centres unmarked)
3. Cn1c(=O)n(C2CCC(=O)NC2=O)c2ccc(N3CCC(CN4CCN(c5cc(C#N)cc(-n6cc(-c7ccc8c(c7)CCNC8=O)c(N)n6)c5)CC4)CC3)cc21 (centres unmarked)
4. Cn1c(=O)n(C2CCC(=O)NC2=O)c2ccc(N3CCC(CN4CCN(c5ccc6oc(-c7cc(Nc8ccnc(N)n8)cc8cn[nH]c78)cc6c5)CC4)CC3)cc21 (centres unmarked)

Solution:
["> 75%", "> 75%", "< 50%", "< 50%"]

Entry "C[C@@H]1CN(C)c2c(sc3ccc4nc(-c5ccc(N6CCC(CN7CCN(c8cccc9c(N%10CCC(=O)NC%10=O)cncc89)CC7)CC6)cc5)ccc4c23)C(=O)N1" under UniProt:P49137 had Dmax of > 75%

----------
Target: MK2 (Homo sapiens)
Sequence (P49137 whole entry): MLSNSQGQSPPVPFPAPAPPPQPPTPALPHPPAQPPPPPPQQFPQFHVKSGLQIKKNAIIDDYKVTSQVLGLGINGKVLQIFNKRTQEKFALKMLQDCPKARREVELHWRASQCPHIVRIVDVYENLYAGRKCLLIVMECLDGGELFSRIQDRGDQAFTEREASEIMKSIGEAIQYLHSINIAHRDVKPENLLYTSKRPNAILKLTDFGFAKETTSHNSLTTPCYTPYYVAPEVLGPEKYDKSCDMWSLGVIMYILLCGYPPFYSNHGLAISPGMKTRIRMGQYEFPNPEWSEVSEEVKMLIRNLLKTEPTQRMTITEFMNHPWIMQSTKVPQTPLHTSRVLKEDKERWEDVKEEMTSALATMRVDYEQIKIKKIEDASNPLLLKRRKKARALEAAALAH
Test: MK2 degradation in human SW1353 cells (MSD, 24 h)
Assay type: cell-based
Design: endogenous in cells; host or cells: SW-1353 (ATCC HTB-94)
Settings: read-out: MK2 MSD SW 1353 24 h Dmax %
Readout type: Dmax

Below, each entry is followed by its recorded Dmax result.
Quick note, Dmax for C[C@@H]1CNc2c(sc3ccc4nc(-c5ccc(N6CCC(CCN7CCN(c8ccc9c(c8)n(C)c(=O)n9C8CCC(=O)NC8=O)CC7)CC6)cc5)ccc4c23)C(=O)N1 (stereo partly shown) [Compound I-131] landed at > 75%

Quick note, Dmax for C[C@@H]1CN(C)c2c(sc3ccc4nc(-c5ccc(N6CCC(CN7CCN(c8ccc9c(c8)n(C)c(=O)n9C8CCC(=O)NC8=O)CC7)CC6)cc5)ccc4c23)C(=O)N1 (stereo partly shown) [Compound I-253] landed at > 75%

Quick note, Dmax for Cn1c(=O)n(C2CCC(=O)NC2=O)c2cccc(CCN3CCN(c4ccc(-c5nccc(-c6cc7c([nH]6)C6(CC6)CNC7=O)c5F)cc4)CC3)c21 (stereo not shown) [Compound I-431] landed at 50 to 75%

Quick note, Dmax for C[C@@H]1Cc2[nH]c(-c3ccnc(-c4ccc(N5CCC(CN6CCC(c7ccc8c(c7)n(C)c(=O)n8C7CCC(=O)NC7=O)CC6)CC5)cc4)c3)cc2C(=O)N1 (stereo partly shown) [Compound I-263] landed at > 75%

Quick note, Dmax for CCc1cc(-c2cc(-c3cc4c([nH]3)CCNC4=O)ccn2)cc(CC)c1N1CCN(CC2CCN(c3ccc4c(c3)n(C)c(=O)n4C3CCC(=O)NC3=O)CC2)CC1 (stereo not shown) [Compound I-447] landed at 50 to 75%

Below are 3 compounds. Give each one its Dmax.
1. C[C@@H]1CNc2c(sc3ccc4nc(-c5cccc(N6CCN(CCCCCc7cccc8c7n(C)c(=O)n8C7CCC(=O)NC7=O)CC6)c5)ccc4c23)C(=O)N1 (stereo partly shown) [Compound I-94]
2. Cn1c(=O)n(C2CCC(=O)NC2=O)c2ccc(N3CCC(CN4CCN(c5cc(-c6ccccc6)cc(-c6cc(-c7cc8c([nH]7)CCNC8=O)ccn6)c5)CC4)CC3)cc21 (stereo not shown) [Compound I-224]
3. C[C@@H]1CNc2c(sc3ccc4nc(-c5ccc(N6CCN(C7CN(c8cccc9c8n(C)c(=O)n9C8CCC(=O)NC8=O)C7)CC6)cc5)ccc4c23)C(=O)N1 (stereo partly shown) [Compound I-262]

Solution:
1: > 75%; 2: < 50%; 3: > 75%

Below are 2 compounds. Give each one its Dmax.
1. C[C@@H]1CNc2c(sc3ccc4nc(-c5ccc(N6CCC(CN7CCN(c8cccc9c(N%10CCC(=O)NC%10=O)cncc89)CC7)CC6)cc5)ccc4c23)C(=O)N1 [Compound I-317]
2. Cc1cc(N2CCC(CN3CCC(c4ccc5c(c4)n(C)c(=O)n5C4CCC(=O)NC4=O)CC3)CC2)ccc1-c1ccc2c(ccc3sc4c(c32)NC[C@@H](C)NC4=O)n1 (stereo partly shown) [Compound I-291]

Solution:
> 75%
> 75%
